Assay: Anticancer activity against human KBV cells assessed as reduction in cell growth measured after 72 hrs by SRB assay
Format: functional, cell-based
Provide the reported IC50 of each item.
Answers are plain numbers, in µM.

# Smiles record, IC50, µM
rows = [
    ("CC[C@@]1(O)C(=O)OCc2c1cc1n(c2=O)Cc2c-1nc1ccccc1c2CN1CCN(C(=S)Nc2cccc3ccccc23)CC1", 275),
]

Reported IC50, compound CC[C@@]1(O)C(=O)OCc2c1cc1n(c2=O)Cc2c-1nc1ccccc1c2CN1CCN(C(=S)Nc2ccccc2OC)CC1 : ____
514

Cited source for all entries: ChEMBL document CHEMBL5625230
